- tested_system: furin, P09958;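 further: purified furin at 1:10 enzyme:substrate in 50 mM HEPES pH 7.5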
- Sequence (P09958 whole entry): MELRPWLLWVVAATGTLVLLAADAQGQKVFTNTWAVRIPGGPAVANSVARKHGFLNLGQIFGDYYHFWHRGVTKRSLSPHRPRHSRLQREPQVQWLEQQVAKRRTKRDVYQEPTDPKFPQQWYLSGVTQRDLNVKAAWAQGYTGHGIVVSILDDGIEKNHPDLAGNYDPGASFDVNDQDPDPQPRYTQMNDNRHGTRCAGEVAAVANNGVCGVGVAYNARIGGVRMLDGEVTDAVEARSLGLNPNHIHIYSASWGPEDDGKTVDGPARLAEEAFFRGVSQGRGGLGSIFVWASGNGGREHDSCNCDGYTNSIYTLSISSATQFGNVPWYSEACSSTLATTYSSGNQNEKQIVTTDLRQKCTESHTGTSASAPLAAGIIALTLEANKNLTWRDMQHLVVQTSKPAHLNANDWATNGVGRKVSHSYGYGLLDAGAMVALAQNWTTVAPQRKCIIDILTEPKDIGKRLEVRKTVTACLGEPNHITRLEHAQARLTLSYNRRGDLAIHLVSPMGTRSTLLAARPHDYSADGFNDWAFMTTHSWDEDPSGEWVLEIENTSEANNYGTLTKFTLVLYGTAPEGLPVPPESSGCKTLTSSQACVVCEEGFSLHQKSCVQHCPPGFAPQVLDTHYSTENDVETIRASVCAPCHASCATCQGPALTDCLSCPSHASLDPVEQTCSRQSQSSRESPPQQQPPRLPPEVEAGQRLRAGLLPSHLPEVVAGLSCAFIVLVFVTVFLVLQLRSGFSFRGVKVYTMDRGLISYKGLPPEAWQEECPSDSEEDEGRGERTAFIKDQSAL
- measurement_description: furin cleavage Z-score vs untreated control; higher = more cleavage, active = 3.5 or more, inactive = 1 or less, 8 variable residues between constant flanks
- condition_parameters: 15 min
Some of the results follow. The hit rate among all sequences tested is not known here.
furin cleavage Z-score vs -0.1: at or above is TRUE, below is FALSE.

Data request: Does the reported furin cleavage Z-score for CARFDRFILTAGNASASA [FS-2331] fall at or above the -0.1 mark?
Data returned: TRUE

Data request: Does the reported furin cleavage Z-score for CASTPCSAHRAGNASASA [HC2573] fall at or above the -0.1 mark?
Data returned: TRUE

Data request: Does the reported furin cleavage Z-score for CAEVVTSWWVAGNASASA [HC2208] fall at or above the -0.1 mark?
Data returned: TRUE

Data request: Does the reported furin cleavage Z-score for CASTTCSAHLAGNASASA [HC2518] fall at or above the -0.1 mark?
Data returned: FALSE

Data request: Does the reported furin cleavage Z-score for CAVVCVSMSYAGNASASA [HC83] fall at or above the -0.1 mark?
Data returned: TRUE

Data request: Does the reported furin cleavage Z-score for CARNRRIITVAGNASASA [FS-3198] fall at or above the -0.1 mark?
Data returned: FALSE

Data request: Does the reported furin cleavage Z-score for CATNHRIFRSAGNASASA [FS-384] fall at or above the -0.1 mark?
Data returned: TRUE

Data request: Does the reported furin cleavage Z-score for CAMAFTAAVTAGNASASA [HC1056] fall at or above the -0.1 mark?
Data returned: FALSE

Data request: Does the reported furin cleavage Z-score for CAEVPCHMPSAGNASASA [HC2366] fall at or above the -0.1 mark?
Data returned: TRUE

Data request: Does the reported furin cleavage Z-score for CARERRYSTVAGNASASA [FS-2551] fall at or above the -0.1 mark?
Data returned: TRUE

Data request: Does the reported furin cleavage Z-score for CATPQRLRRQAGNASASA [FS-570] fall at or above the -0.1 mark?
Data returned: TRUE

Data request: Does the reported furin cleavage Z-score for CAYKRYISWCAGNASASA [HC578] fall at or above the -0.1 mark?
Data returned: TRUE

Data request: Does the reported furin cleavage Z-score for CAVVCMSMSYAGNASASA [HC88] fall at or above the -0.1 mark?
Data returned: FALSE

Data request: Does the reported furin cleavage Z-score for CAFLWRSFRSAGNASASA [FS-327] fall at or above the -0.1 mark?
Data returned: FALSE

Data request: Does the reported furin cleavage Z-score for CASEARMVRSAGNASASA [FS-1079] fall at or above the -0.1 mark?
Data returned: TRUE
